Listing: IC50 of selected compounds
# System tested: TXK (Homo sapiens (Human))
# Sequence (P42681 whole entry, species assumed): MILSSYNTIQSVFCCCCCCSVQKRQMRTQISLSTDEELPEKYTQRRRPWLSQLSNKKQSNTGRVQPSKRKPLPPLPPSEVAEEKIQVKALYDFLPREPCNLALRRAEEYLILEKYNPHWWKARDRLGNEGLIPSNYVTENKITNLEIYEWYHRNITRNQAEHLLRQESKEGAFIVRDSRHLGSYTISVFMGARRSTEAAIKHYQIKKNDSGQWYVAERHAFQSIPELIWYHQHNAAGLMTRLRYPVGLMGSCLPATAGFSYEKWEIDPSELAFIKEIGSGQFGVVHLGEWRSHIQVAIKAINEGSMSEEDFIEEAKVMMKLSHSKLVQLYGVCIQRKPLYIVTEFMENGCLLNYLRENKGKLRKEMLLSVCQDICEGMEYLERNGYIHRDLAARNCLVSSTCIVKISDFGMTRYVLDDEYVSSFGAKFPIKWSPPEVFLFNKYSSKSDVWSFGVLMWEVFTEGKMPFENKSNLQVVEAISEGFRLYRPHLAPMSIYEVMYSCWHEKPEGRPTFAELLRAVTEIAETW
# Experiment summary: IC50 against TXK
# Type: biochemical

| Compound | IC50 |
| --- | --- |
| C=CC(=O)N1CCN(C(=O)c2cc(Sc3cnc(NC(=O)CC)s3)c(C)cc2OC)[C@@H](C)C1 | 10 to 100 nM |
| C=CC(=O)N1CCN(C(=O)c2cc(Sc3cnc(NC(=O)C4CC4)s3)c(C)cc2OC)C[C@@H]1C | 10 to 100 nM |

Item: C=CC(=O)N1CCN(C(=O)c2cc(Sc3cnc(NC(=O)C4CC4)s3)c(C)cc2C(F)(F)F)C[C@H]1C | IC50: 100 to 1000 nM

C=CC(=O)N1CCN(C(=O)c2cc(Sc3cnc(NC(=O)C4CC4)s3)c(C)cc2Cl)C[C@H]1CC has a reported IC50 of 10 to 100 nM

IC50 reported for this compound C=CC(=O)N1CCN(C(=O)c2cc(Sc3cnc(NC(=O)C4CCCC4)s3)c(C)cc2OC)CC1 : 100 to 1000 nM

Briefly, IC50 measured for C=CC(=O)N1C[C@@H]2C[C@H]1CN2C(=O)c1cc(Sc2cnc(NC(=O)C3CC3)s2)c(C)cc1OC : < 10 nM

// IC50 value for C=CC(=O)N1CCCN(C(=O)c2cc(Sc3cnc(NC(=O)C(C)(C)C)s3)c(C)cc2OC)CC1 : ≥ 10000 nM

Reported IC50 of C=CC(=O)N1CCN(C(=O)c2cc(Sc3cnc(NC(=O)c4ccc(N5CCN(C(=O)OC(C)(C)C)CC5)cc4)s3)c(C)cc2OC)CC1 : 10 to 100 nM

So, C=CC(=O)N1CCCN(C(=O)c2cc(CSc3cnc(NC(=O)C4CC4)s3)cc(C)c2C)CC1 ? Its IC50 was 1000 to 10000 nM

Reported IC50 for C=CC(=O)N1CCCN(C(=O)c2cc(Sc3cnc(Nc4ccccn4)s3)c(C)cc2OC)C[C@H]1C(C)C was 100 to 1000 nM

Data point: C=CC(=O)N1CCCN(C(=O)c2cc(Sc3cnc(NC(=O)C4CC4)s3)ccc2OC)C[C@H]1C ; IC50 = 1000 to 10000 nM

For C=CC(=O)N1CCC2(C1)CN(C(=O)c1cc(Sc3cnc(NC(=O)C4CC4)s3)c(C)cc1OC)C2 the compound record lists IC50 as < 10 nM

Data point: C=CC(=O)N1CCN(C(=O)c2cc(Sc3cnc(NC(=O)C4CC4)s3)c(C)cc2CC)CC1 ; IC50 = < 10 nM

Lab note: measured IC50 of C=CC(=O)N1CCN(C(=O)c2cc(Sc3cnc(NC(=O)C4CC4)s3)c(C)cc2OC)CC(F)C1 (centres unmarked) was < 10 nM
